pIC50: −log10 of the molar value.
Please find below pIC50 measurements for Ubiquitin carboxyl-terminal hydrolase 2 (Homo sapiens), combined from several publications.
Endpoint: pIC50

{"columns": ["Compound", "Target entity", "Endpoint", "Qualifier operator", "Assay result"],
 "data": [
  ["COC(=O)[C@]12CCC(C)(C)C[C@H]1[C@H]1C(=O)C=C3[C@@]4(C)C=C(C#N)C(=O)C(C)(C)[C@@H]4CC[C@@]3(C)[C@]1(C)CC2", "Ubiquitin carboxyl-terminal hydrolase 2 (Homo sapiens)", "pIC50", "=", 4.66],
  ["O=C1NC(=O)/C(=C2\\CCNC(=O)c3[nH]ccc32)N1", "Ubiquitin carboxyl-terminal hydrolase 2 (Homo sapiens)", "pIC50", "<", 4.50],
  ["COCC(NC(=O)C1CCCC1)C(=O)Nc1nnc(Cc2ccc([N+](=O)[O-])cc2)s1 (racemic)", "Ubiquitin carboxyl-terminal hydrolase 2 (Homo sapiens)", "pIC50", "=", 4.60]
]}
